Origin of the recorded values: the supplement of paper PMC7877785

- Assay Remarks: self-splicing fitness, log relative to wild type (ln ratio); higher = more splicing; Tetrahymena group I intron in knt gene, E. coli kanamycin selection, DiMSum; sequences stand for … in CUCUCU…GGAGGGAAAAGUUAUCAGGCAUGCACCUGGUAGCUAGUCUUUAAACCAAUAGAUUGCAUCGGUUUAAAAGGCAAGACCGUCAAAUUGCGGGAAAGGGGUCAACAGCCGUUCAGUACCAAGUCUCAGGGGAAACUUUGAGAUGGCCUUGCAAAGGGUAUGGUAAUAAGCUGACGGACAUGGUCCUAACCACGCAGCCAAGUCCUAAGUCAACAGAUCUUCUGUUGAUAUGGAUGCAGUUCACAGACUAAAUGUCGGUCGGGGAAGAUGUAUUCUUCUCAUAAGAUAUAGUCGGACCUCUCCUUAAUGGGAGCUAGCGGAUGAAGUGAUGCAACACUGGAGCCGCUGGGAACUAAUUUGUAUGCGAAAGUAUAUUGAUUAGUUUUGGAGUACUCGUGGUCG;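 note: selection with 25 µg/mL kanamycin versus none on LB agar overnight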
- Settings: 37 °C
Quick list: self-splicing fitness (ln) per entry.
In your answer, state the number alone without any accompanying words.

Look over these answered cases.
GCCGAGCAAUAUUACGGUGG    -3.27
AUCCAGCAAUAUUACGAAUA    -0.957

Asked: Which value of self-splicing fitness (ln) has been reported for UGAUAGCAAUAUUACGCGGU in the records?
Given back: -1.99

Asked: Which value of self-splicing fitness (ln) has been reported for AACCAGCAAUAUUACGGAUG in the records?
Given back: -0.508

Asked: Which value of self-splicing fitness (ln) has been reported for AGUGAGCAAUAUUACGAACC in the records?
Given back: -0.869

###

- Assay Remarks: self-splicing fitness, log relative to wild type (ln ratio); higher = more splicing; Tetrahymena group I intron in knt gene, E. coli kanamycin selection, DiMSum; sequences stand for … in CUCUCU…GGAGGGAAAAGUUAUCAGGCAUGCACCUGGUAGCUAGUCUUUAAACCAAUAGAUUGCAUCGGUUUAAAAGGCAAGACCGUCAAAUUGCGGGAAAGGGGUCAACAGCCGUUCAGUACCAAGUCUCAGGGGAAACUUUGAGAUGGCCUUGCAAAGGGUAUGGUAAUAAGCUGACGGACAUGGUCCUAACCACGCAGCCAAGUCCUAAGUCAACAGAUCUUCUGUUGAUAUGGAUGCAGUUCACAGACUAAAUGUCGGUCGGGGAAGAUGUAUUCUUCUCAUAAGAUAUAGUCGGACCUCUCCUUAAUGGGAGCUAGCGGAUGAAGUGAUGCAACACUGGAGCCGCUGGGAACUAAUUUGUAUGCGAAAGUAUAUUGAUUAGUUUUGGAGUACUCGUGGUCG
- Settings: 37 °C
Metric Name: self-splicing fitness (ln)
In your answer, state the number alone without any accompanying words.

Look over these answered cases.
UAUAAGCAAUAUUACGUUCA    -0.352
GCUCAGCAAUAUUACGGGGC    -1.98
GGCAAGCAAUAUUACGACCA    -0.321
CCUUAGCAAUAUUACGCGUG    -2.61
UGAUAGCAAUAUUACGAAUG    -1.14
ACCUAGCAAUAUUACGUAUA    -1.46

Asked: Which value of self-splicing fitness (ln) has been reported for CCCGAGCAAUAUUACGCACA in the records?
Given back: -1.68

Asked: Which value of self-splicing fitness (ln) has been reported for AGGCAGCAAUAUUACGCUCA in the records?
Given back: 0.0289

###

Quick list: self-splicing fitness (ln) per entry.
- Assay Remarks: self-splicing fitness, log relative to wild type (ln ratio); higher = more splicing; Tetrahymena group I intron in knt gene, E. coli kanamycin selection, DiMSum; sequences stand for … in CUCUCU…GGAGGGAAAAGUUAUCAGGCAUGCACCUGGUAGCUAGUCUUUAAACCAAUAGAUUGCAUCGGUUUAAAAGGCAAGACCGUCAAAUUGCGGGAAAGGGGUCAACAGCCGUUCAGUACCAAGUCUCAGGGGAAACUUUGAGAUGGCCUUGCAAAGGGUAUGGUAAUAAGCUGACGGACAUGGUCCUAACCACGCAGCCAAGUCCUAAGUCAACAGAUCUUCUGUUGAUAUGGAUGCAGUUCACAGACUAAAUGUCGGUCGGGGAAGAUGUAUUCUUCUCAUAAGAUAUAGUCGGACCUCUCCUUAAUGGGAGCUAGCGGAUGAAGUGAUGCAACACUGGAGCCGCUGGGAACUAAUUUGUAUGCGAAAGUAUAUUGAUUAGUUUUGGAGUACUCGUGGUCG
- Settings: 30 °C
In your answer, state the number alone without any accompanying words.

GGCGAGCAAUAUUACGACAG    -3.57

// moving on: another record for self-splicing fitness (ln)
Asked: Which value of self-splicing fitness (ln) has been reported for UAGUAGCAAUAUUACGCGCC in the records?
Given back: -2.32

###

- Assay Remarks: self-splicing fitness, log relative to wild type (ln ratio); higher = more splicing; Tetrahymena group I intron in knt gene, E. coli kanamycin selection, DiMSum; sequences stand for … in CUCUCU…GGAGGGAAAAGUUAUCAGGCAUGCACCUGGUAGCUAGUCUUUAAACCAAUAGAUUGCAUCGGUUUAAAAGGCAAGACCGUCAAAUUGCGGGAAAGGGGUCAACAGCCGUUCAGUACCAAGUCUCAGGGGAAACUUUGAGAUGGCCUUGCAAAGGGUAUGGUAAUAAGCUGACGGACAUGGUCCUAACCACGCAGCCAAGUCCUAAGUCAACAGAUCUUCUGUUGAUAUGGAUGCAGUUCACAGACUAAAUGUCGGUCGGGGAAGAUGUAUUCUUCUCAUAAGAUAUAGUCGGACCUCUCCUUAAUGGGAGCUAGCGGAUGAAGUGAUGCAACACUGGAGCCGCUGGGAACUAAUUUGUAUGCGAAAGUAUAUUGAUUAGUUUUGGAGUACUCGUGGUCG
- Settings: 37 °C
Quick list: self-splicing fitness (ln) per entry.
In your answer, state the number alone without any accompanying words.

Look over these answered cases.
UAAUAGCAAUAUUACGCGGG    -1.65
CGUGAGCAAUAUUACGCUUU    -1.98
CCGAAGCAAUAUUACGUGGC    -2.61
UAGAAGCAAUAUUACGCAGA    -1.79
CAUGAGCAAUAUUACGCGCG    0.0218
ACCUAGCAAUAUUACGAAAU    -0.321

Asked: Which value of self-splicing fitness (ln) has been reported for AGCCAGCAAUAUUACGUUGA in the records?
Given back: -2.04

Asked: Which value of self-splicing fitness (ln) has been reported for CCAGAGCAAUAUUACGUUUG in the records?
Given back: -2.25

Asked: Which value of self-splicing fitness (ln) has been reported for UUUCAGCAAUAUUACGGUAA in the records?
Given back: -0.168

Asked: Which value of self-splicing fitness (ln) has been reported for CAUCAGCAAUAUUACGCAGA in the records?
Given back: -2.86

Asked: Which value of self-splicing fitness (ln) has been reported for ACUUAGCAAUAUUACGGAGU in the records?
Given back: -3.1

Asked: Which value of self-splicing fitness (ln) has been reported for AGUGAGCAAUAUUACGGCCG in the records?
Given back: -1.59

###

Quick list: self-splicing fitness (ln) per entry.
- Assay Remarks: self-splicing fitness, log relative to wild type (ln ratio); higher = more splicing; Tetrahymena group I intron in knt gene, E. coli kanamycin selection, DiMSum; sequences stand for … in CUCUCU…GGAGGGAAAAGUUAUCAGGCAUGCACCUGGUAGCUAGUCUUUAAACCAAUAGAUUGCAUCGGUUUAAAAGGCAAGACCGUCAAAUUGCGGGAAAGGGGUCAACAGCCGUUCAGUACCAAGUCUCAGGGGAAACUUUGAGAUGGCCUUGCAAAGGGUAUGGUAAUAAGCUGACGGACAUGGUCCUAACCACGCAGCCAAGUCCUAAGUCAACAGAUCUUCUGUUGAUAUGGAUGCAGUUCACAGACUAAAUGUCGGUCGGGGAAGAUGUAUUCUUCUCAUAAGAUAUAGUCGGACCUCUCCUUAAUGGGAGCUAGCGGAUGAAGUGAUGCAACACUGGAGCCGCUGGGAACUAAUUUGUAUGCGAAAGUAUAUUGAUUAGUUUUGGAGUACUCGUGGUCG
- Settings: 37 °C
In your answer, state the number alone without any accompanying words.

Look over these answered cases.
CCUGAGCAAUAUUACGUUUG    -2.21
UAACAGCAAUAUUACGAUAU    -1.28

Asked: Which value of self-splicing fitness (ln) has been reported for CUGGAGCAAUAUUACGACGA in the records?
Given back: -1.7

Asked: Which value of self-splicing fitness (ln) has been reported for UACAAGCAAUAUUACGACGC in the records?
Given back: -1.67

Asked: Which value of self-splicing fitness (ln) has been reported for CUUAAGCAAUAUUACGACGG in the records?
Given back: -0.291

Asked: Which value of self-splicing fitness (ln) has been reported for ACGUAGCAAUAUUACGGAGC in the records?
Given back: -2.39
